I'd appreciate it if you could supply EC50 values for the items below.
molecular target: M4 muscarinic receptor (Homo sapiens); construct: expressed in transfected cells; host or cells: CHO (M4-CHO); assay: Functional mobilization of intracellular calcium (FLIPR) in M4-CHO cells; format: cell-based; conditions: M4-CHO cells, calcium mobilization (FLIPR)
Sequence (P08173 whole entry): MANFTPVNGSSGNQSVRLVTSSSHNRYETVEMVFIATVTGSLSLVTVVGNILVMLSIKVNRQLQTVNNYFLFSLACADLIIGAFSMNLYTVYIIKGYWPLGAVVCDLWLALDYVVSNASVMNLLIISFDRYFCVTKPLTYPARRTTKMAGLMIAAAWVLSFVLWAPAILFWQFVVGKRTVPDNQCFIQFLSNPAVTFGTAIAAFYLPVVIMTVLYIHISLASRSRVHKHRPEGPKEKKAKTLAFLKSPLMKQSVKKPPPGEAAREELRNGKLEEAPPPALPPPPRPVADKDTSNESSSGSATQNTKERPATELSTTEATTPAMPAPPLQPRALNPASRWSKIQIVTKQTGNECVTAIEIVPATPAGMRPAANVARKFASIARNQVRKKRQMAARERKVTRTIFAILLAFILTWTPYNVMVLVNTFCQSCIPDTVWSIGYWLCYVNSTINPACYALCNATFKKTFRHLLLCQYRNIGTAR

As a guide, the following entries are already answered.
-- ask Name the recorded EC50 of the compound listed here: COCCOC(=O)N1CCC(CN2CCC3(CC2)CN(C(C)=O)c2ccc(C)cc23)CC1 [compound 419]
-- reply > 1000 nM

-- ask Name the recorded EC50 of the compound listed here: Cc1cc(C(=O)N2CC3(CCN(C4CC5CCC(C4)N5C(=O)O[C@H]4CCOC4)CC3)c3cc(F)ccc32)nn1C (stereo partly shown) [compound 411]
-- reply 100 to 1000 nM

Hi, could you look up EC50 for each item in my list?
1. CC(=O)NC1CC2(CCN(C[C@@H]3C[C@H]4C=C[C@H]3C4)CC2)c2ccccc21 (stereo partly shown) [compound 408]
2. CC(=O)N1CC2(CCN(C3CCN(C(=O)O[C@@H]4CCOC4)CC3)CC2)c2cc(F)ccc21 [compound 424]

-- reply
["< 100 nM", "> 1000 nM"]

----------
Target: M4 muscarinic receptor (Homo sapiens)
Construct: expressed in transfected cells; host or cells: CHO (M4-CHO)
Assay: Functional mobilization of intracellular calcium (FLIPR) in M4-CHO cells
Format: cell-based
Settings: M4 receptor, calcium mobilization; read-out: M4 Efficacy
Description: Functional Mobilization of Intracellular Calcium to Determine Muscarinic Receptor Activity: […] Compounds are prepared at a 2× fold concentration in a 96-well plate (round bottom, Costar Corning cat# 3656), by reconstituting the pre-spotted compounds in bath 1 containing 1 mM probenecid. […] In both assay modes, the fluorescence is recorded for 60 sec (excitation wavelength is […] and emission wavelength 540 nm) using the FLIPR 3 instrument. […]
I'd appreciate it if you could supply Emax values for the items below.

As a guide, the following entries are already answered.
-- ask Name the recorded Emax of the compound listed here: CC#CCOC(=O)N1CCC(N2CCC3(CC2)CN(C(C)=O)c2ccc(F)cc23)CC1
-- reply 65 to 85%

-- ask Name the recorded Emax of the compound listed here: Clc1ccc2c(c1)C1(CCN(C3CCCCCC3)CC1)CN2
-- reply < 65%

-- ask Name the recorded Emax of the compound listed here: CC(=O)N1CC2(CCN(C3CC4CCC(C3)N4C(=O)OC3CCC3)CC2)c2cc(F)ccc21 (centres unmarked)
-- reply 65 to 85%

-- ask Name the recorded Emax of the compound listed here: Cc1ccc2c(c1)C1(CCN(C3CC4CCC3C4)CC1)CN2C(=O)c1cc(C)n(C)n1 (centres unmarked)
-- reply < 65%

-- ask Name the recorded Emax of the compound listed here: CCCC1CCC(N2CCC3(CC2)CNc2ccc(F)cc23)CC1 (centres unmarked)
-- reply 65 to 85%

-- ask Name the recorded Emax of the compound listed here: O=C(OCC1CCCO1)N1C2CCC1CC(N1CCC3(CC1)COc1ccc(F)cc13)C2 (centres unmarked)
-- reply < 65%

-- ask Name the recorded Emax of the compound listed here: CCOC(=O)N1C2CCC1CC(N1CCC3(CCc4ccccc43)CC1)C2 (centres unmarked)
-- reply < 65%

-- ask Name the recorded Emax of the compound listed here: Fc1ccc2c(c1)C1(CCN(C3CCC4CCC3C4)CC1)CN2 (centres unmarked)
-- reply < 65%

-- ask Name the recorded Emax of the compound listed here: CCOC(=O)N1CCC(N2CCC3(CC2)CN(C(=O)C2CCCCC2)c2ccc(F)cc23)CC1
-- reply 65 to 85%

-- ask Name the recorded Emax of the compound listed here: CCOC(=O)N1C2CCC1CC(N1CCC3(CC1)CN(C(=O)Nc1ccc(F)cc1)c1ccc(F)cc13)C2 (centres unmarked)
-- reply < 65%

Hi, could you look up Emax for each item in my list?
1. COC(=O)N1CC2(CCN(C3CC4CCC(C3)N4C(=O)O[C@@H]3CCOC3)CC2)c2cc(F)ccc21 (some centres unmarked)
2. CCOC(=O)N1CCC(N2CCC3(CC2)CN(C(C)=O)c2ccc(-c4ccccc4C#N)cc23)CC1
3. COCCOC(=O)N1C2CCC1CC(N1CCC3(CC1)CN(C(=O)N(C)C)c1ccc(F)cc13)C2 (centres unmarked)
4. CCOC(=O)N1CCC(N2CCC3(CC2)CN(C(C)=O)c2ccc(-c4ccc(C)cc4)cc23)CC1

-- reply
1: 65 to 85%; 2: < 65%; 3: < 65%; 4: 65 to 85%

Hi, could you look up Emax for each item in my list?
1. CCCC1CCC(N2CCC3(CC2)C[C@H](NC(C)=O)c2ccccc23)CC1 (some centres unmarked)
2. Clc1ccc2c(c1)C1(CCO2)CCN(C2CCCCC2)CC1
3. Cc1cc(C(=O)N2CC3(CCN(C4CC5CCC(C4)N5C(=O)OC(C)C)CC3)c3cc(F)ccc32)nn1C (centres unmarked)

-- reply
["> 85%", "65 to 85%", "< 65%"]

----------
molecular target: M1 muscarinic receptor (Homo sapiens); construct: expressed in transfected cells; host or cells: CHO (M1-CHO); assay: Functional mobilization of intracellular calcium (FLIPR) in M1-CHO cells; format: cell-based; conditions: M1-CHO cells, calcium mobilization (FLIPR)
pEC50: −log10 of the molar value.
measure: pEC50

-- ask Name the recorded pEC50 of the compound listed here: Fc1ccc2c(c1)C1(CCN(C3CC4CCC3C4)CC1)CN2 (stereo not shown) [compound 416]
-- reply < 6.00

Hi, could you look up pEC50 for each item in my list?
1. CC(=O)NC1CC2(CCN(C[C@@H]3C[C@H]4C=C[C@H]3C4)CC2)c2ccccc21 (stereo partly shown) [compound 408]
2. CC(=O)N1CC2(CCN(C3CCN(C(=O)O[C@@H]4CCOC4)CC3)CC2)c2cc(F)ccc21 [compound 424]

-- reply
["> 7.00", "< 6.00"]

Hi, could you look up pEC50 for each item in my list?
1. Cc1ccc2c(c1)C1(CCN(CC3CC4CCC3C4)CC1)CN2C(=O)OC(C)(C)C (stereo not shown) [compound 382]
2. CC(=O)N1CC2(CCN(CC3CCCCC3)CC2)c2cc(F)ccc21 [compound 393]

-- reply
1: > 7.00; 2: > 7.00

----------
Target: M1 muscarinic receptor (Homo sapiens)
Construct: expressed in transfected cells; host or cells: CHO (M1-CHO)
Sequence (P11229 1-460): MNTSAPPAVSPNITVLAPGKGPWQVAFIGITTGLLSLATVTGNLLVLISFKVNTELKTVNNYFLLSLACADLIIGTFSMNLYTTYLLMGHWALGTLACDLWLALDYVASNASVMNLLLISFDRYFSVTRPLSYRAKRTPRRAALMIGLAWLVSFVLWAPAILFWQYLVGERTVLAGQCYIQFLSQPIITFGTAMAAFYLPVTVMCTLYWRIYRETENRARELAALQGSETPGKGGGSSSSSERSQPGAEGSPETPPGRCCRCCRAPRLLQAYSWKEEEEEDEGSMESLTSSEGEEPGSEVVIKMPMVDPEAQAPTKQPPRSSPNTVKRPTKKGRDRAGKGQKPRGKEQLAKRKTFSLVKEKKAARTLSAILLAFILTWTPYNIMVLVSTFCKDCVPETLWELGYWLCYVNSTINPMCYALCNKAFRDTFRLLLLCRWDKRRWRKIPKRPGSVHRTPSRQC
Assay: Functional mobilization of intracellular calcium (FLIPR) in M1-CHO cells
Assay type: cell-based
Settings: Table 4; 100% efficacy is the maximum response obtained with the Carbachol control
measure: Emax

-- ask Name the recorded Emax of the molecule listed here: CCCCc1cncc(N2CCC(N3CCC4(CC3)CN(C(C)=O)c3ccccc34)CC2)n1 [compound 477]
-- reply < 25%

-- ask Name the recorded Emax of the molecule listed here: CN(C)C(=O)N1CC2(CCN(C3CCN(C(=O)c4ccc(F)cc4)CC3)CC2)c2cc(F)ccc21 [compound 767]
-- reply 25 to 100%

-- ask Name the recorded Emax of the molecule listed here: CCOC(=O)N1CCC(N2CCC3(CC2)CN(C(C)=O)c2ccccc23)CC1 [compound 626]
-- reply 25 to 100%

---
-- ask Name the recorded Emax of the molecule listed here: CCOC(=O)N1CCC(N2CCC3(CC2)CN(C(C)=O)c2c(-c4ccc(C(F)(F)F)cc4)cccc23)CC1 [compound 653]
-- reply 25 to 100%

----------
target: M1 muscarinic receptor (Homo sapiens); construct: expressed in transfected cells; host or cells: CHO (M1-CHO); experiment: Functional mobilization of intracellular calcium (FLIPR) in M1-CHO cells; assay type: cell-based; conditions: Table 4; 100% efficacy is the maximum response obtained with the Carbachol control
measure: Emax

As a guide, the following entries are already answered.
-- ask Name the recorded Emax of the compound listed here: CC(=O)N[C@H]1CC2(CCN(CC3CC4CCC3C4)C2)c2ccc(F)cc21 (stereo partly shown) [compound 640]
-- reply 25 to 100%

-- ask Name the recorded Emax of the compound listed here: CCOC(=O)N1C2CCC1CC(N1CCC3(CC1)CN(C(C)=O)c1ccc(C(C)C)cc13)C2 (stereo not shown) [compound 606]
-- reply 25 to 100%

-- ask Name the recorded Emax of the compound listed here: CCOC(=O)N1CCC(CN2CCC3(CC2)CN(C(C)=O)c2ccc(C(C)C)cc23)CC1 [compound 555]
-- reply 25 to 100%

Hi, could you look up Emax for each item in my list?
1. CC(=O)N[C@H]1CCC2(CCN(CC3CC4CCC3C4)CC2)c2ccccc21 (stereo partly shown) [compound 655]
2. CC(=O)N1CC2(CCN(C3CCN(c4cncc(-c5ccc(F)cc5)n4)CC3)CC2)c2ccccc21 [compound 556]
3. CCC=CCOC(=O)N1C2CCC1CC(N1CCC3(CC1)CN(C(C)=O)c1ccccc13)C2 (stereo not shown) [compound 618]
4. O=C(N[C@H]1CCC2(CCN(C3CCCCCC3)CC2)c2ccccc21)C1CC1 [compound 663]
5. CC(C)OC(=O)N1CCCC(N2CCC3(CC2)CN(C(=O)N(C)C)c2ccc(F)cc23)CC1 (stereo not shown) [compound 704]
6. CCOC(=O)N1CCC(N2CCC3(CC2)CN(C(C)=O)c2ccc(S(C)(=O)=O)cc23)CC1 [compound 719]
7. CC(=O)N1CC2(CCN(CC3CC3)CC2)c2cc(F)ccc21 [compound 577]

-- reply
1: 25 to 100%; 2: 25 to 100%; 3: 25 to 100%; 4: 25 to 100%; 5: 25 to 100%; 6: 25 to 100%; 7: < 25%

Hi, could you look up Emax for each item in my list?
1. CS(=O)(=O)N[C@H]1CCC2(CCN([C@H]3CC4CC[C@H](C4)C3)CC2)c2ccccc21 [compound 668]
2. CC(=O)NC1CCC2(CCN(CCC3CCN(C(=O)OCC(C)C)CC3)CC2)c2ccccc21 (stereo not shown) [compound 962]
3. CN(C)C(=O)N1CC2(CCN(C3CCN(C(=O)c4cccs4)CC3)CC2)c2cc(F)ccc21 [compound 649]
4. COc1ccc([C@@H](C)N[C@H]2CC3(CCN(CC4CC5C=CC4C5)CC3)c3cc(Cl)ccc32)cc1 (stereo partly shown) [compound 569]
5. CCOC(=O)N1CCC(N2CCCC3(CC2)CN(C(C)=O)c2ccc(F)cc23)CC1 (stereo not shown) [compound 587]
6. CC(=O)CN1CC2(CCN([C@@H]3C[C@H]4CCC3C4)CC2)c2cc(C)ccc21 [compound 878]

-- reply
1. 25 to 100%
2. < 25%
3. 25 to 100%
4. 25 to 100%
5. 25 to 100%
6. 25 to 100%

Hi, could you look up Emax for each item in my list?
1. COc1cccc(C(=O)N2CCC(N3CCC4(CC3)CN(C(=O)N(C)C)c3ccc(F)cc34)CC2)c1 [compound 770]
2. O=C(O)C1CC2(CCN(C3CC4CCC3C4)CC2)c2ccccc21 (stereo not shown) [compound 904]
3. CC#CCN1CC2(CCN(C3CCN(C(=O)OCC)CC3)CC2)c2cc(F)ccc21 [compound 844]
4. CCC#CCOC(=O)N1CC[C@@H](CN2CCC3(CC2)CN(C(C)=O)c2ccccc23)C1 [compound 481]

-- reply
1. 25 to 100%
2. < 25%
3. 25 to 100%
4. 25 to 100%

Hi, could you look up Emax for each item in my list?
1. CC(=O)N[C@H]1CC2(CCN(CC3CCN(C(=O)O[C@@H]4CCOC4)CC3)CC2)c2ccccc21 [compound 684]
2. COC(=O)N1CC[C@@H](CN2CCC3(CC2)CN(C(=O)N(C)C)c2ccc(F)cc23)C1 [compound 540]
3. CC#CCOC(=O)N1CC[C@H](CN2CCC3(CC2)CN(C(=O)N(C)C)c2ccc(F)cc23)C1 [compound 761]
4. Cc1cnc(C)c(N2CCC(N3CCC4(CC3)CN(C(=O)N(C)C)c3ccc(F)cc34)CC2)n1 [compound 659]
5. CCOC(=O)N1CCCC(N2CCC3(CC2)CN(C(=O)N(C)C)c2ccc(F)cc23)CC1 (stereo not shown) [compound 698]

-- reply
1: < 25%; 2: 25 to 100%; 3: 25 to 100%; 4: 25 to 100%; 5: > 100%

Hi, could you look up Emax for each item in my list?
1. COc1cc2c(cc1OC)C1(CCN(C3CCCCCCCCCCC3)CC1)C[C@@H]2NC(C)=O [compound 599]
2. COc1cc2c(cc1OC)C1(CCN(C3C4CC5CC(C4)CC3C5)CC1)C[C@@H]2NC(C)=O (stereo partly shown) [compound 546]

-- reply
["25 to 100%", "25 to 100%"]

Hi, could you look up Emax for each item in my list?
1. CCCN1CC2(CCN(C[C@@H]3C[C@H]4C=C[C@H]3C4)CC2)c2cc(F)ccc21 [compound 670]
2. CC(=O)N1CC2(CCN(C3CCNCC3)CC2)c2cc(F)ccc21 [compound 547]
3. O=C(N[C@H]1CCC2(CCN(CC3CCCCC3)CC2)c2ccccc21)C1CC1 [compound 889]
4. CN(C)C(=O)N1CC2(CCN(C3CCN(c4cccc(F)c4)CC3)CC2)c2cc(F)ccc21 [compound 866]

-- reply
1: 25 to 100%; 2: 25 to 100%; 3: 25 to 100%; 4: 25 to 100%

Value source: patent US7786141B2
